The origin of these recorded values is PubChem BioAssay (NCI).

system: UACC-62 melanoma; assay: NCI tumour cell line growth inhibition, 48 h
Field: TGI. Provide a value for each of the molecules that follow.

Task: // TGI lookup, key: CC(C)c1nc2c(Cl)c3ncccc3cc2[nH]c1=O
Output: > 100 µM

Task: Note, next up: COc1ccc(/C=C2\CN(C)CC3C2=NC(=S)NC3c2ccc(OC)cc2)cc1 (centres undefined)
Output: > 100 µM

Task: Note, next up: CN(C)CCNC(=O)c1cc(-c2nccn2C)nc2ccccc12
Output: > 100 µM

Field: TGI. Fill in for each record below.
1. CCCCCCCCCC1CC(=O)NCC(=O)NC(C(C)C)C(=O)NC(CC(C)C)C(=O)NC(C)C(=O)NC(C(C)C)C(=O)O1 (centres undefined)
2. COc1cc(/C=C2/C(=O)NC(Cc3cc(OC)c(OC)c(C)c3OC)C(=O)N2Cc2ccccc2)c(OC)c(C)c1OC (centres undefined)
3. O=C1c2ccccc2-c2c1c(-c1ccccc1)c1n2C2(C(=O)c3ccccc3C2=O)C2C(=O)N(c3ccccc3)C(=O)C12 (centres undefined)
4. COC1=CC(=O)[C@]2(C)[C@H](C1=O)C(C)[C@H]2c1ccccc1 (some centres undefined)
5. COC(=O)/C=C(/C(=O)OC)c1c(C)cc2c(C)cc(C)cc(C)c1-2
6. O=C1c2c(nc3ccccc3c2-c2ccccc2)CN1Nc1ccccc1

Output:
["83.7 µM", "> 100 µM", "49 µM", "> 100 µM", "> 66.5 µM", "> 100 µM"]
